Biological target: human CGRP receptor (human CRLR / human RAMP1 heterodimer) (human, UniProt Q16602 23-461; O60894 27-148)
Sequence (Q16602 23-461 limits assumed, chain 1 of 2): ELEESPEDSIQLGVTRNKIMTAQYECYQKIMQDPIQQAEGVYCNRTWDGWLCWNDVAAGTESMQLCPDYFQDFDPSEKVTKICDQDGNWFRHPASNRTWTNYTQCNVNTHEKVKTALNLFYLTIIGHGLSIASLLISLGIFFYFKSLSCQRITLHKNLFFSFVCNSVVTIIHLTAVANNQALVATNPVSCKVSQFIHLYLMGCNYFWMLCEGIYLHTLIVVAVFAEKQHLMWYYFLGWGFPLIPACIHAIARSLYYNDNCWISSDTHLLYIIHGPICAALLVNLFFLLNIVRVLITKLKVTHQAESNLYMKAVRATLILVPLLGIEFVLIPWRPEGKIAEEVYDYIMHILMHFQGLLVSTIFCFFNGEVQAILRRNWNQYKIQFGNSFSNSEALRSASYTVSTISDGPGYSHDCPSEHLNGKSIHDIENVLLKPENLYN
Sequence (O60894 27-148 limits assumed, chain 2 of 2): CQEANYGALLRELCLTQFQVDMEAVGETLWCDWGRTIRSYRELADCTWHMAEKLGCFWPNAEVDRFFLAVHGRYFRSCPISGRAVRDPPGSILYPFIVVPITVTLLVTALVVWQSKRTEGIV
Test: cell-based or functional assay
assay_endpoint: Run 2 IC50 (nM), cell-based cAMP assay, SK-N-MC cells, 3 nM human α-CGRP
The reply should contain only the number, in nM.

// below: answered binders
anti-CGRP receptor variant antibody 09, bivalent monoclonal antibody (antibody, human IgG1, lambda, N297G, V domains shown) VH: QVQLVESGGGVVQPGRSLRLSCAASGFTFSSFGMHWVRQAPGKGLEWVAVISFAGEIDYYVDSVKGRFTISRDNSKNTLFLQMNSLRAEDTAVYYCARDRLNYYESSGYYHYKYYGMAVWGQGTTVTVSS VL: QSVLTQPPSVSAAPGQKVTISCSGSSSNIGNNYVSWYQQLPGTAPKLLIYDNNKRPSGIPDRFSGSKSGTSATLGITGLQTGDEADYYCGTWDSRLSAVVFGGGTKLTVLG	1
anti-CGRP receptor variant antibody 05, bivalent monoclonal antibody (antibody, human IgG1, lambda, N297G, V domains shown) VH: QVQLVESGGGVVQPGRSLRLSCAASGFTFSSFGMHWVRQAPGKGLEWVAVISFDGSIKYSVDSVKGRFTISRDNSKNTLFLQMNSLRAEDTAVYYCARDRLNYYESSGYYHYKYYGMAVWGQGTTVTVSS VL: QSVLTQPPSVSAAPGQKVTISCSGSFSNIGRSTVSWYQQLPGTAPKLLIYDNRWRAGGIPDRFSGSKSGTSATLGITGLQTGDEADYYCGTWDYQWKAVVFGGGTKLTVLG	0.25
anti-CGRP receptor variant antibody 06, bivalent monoclonal antibody (antibody, human IgG1, lambda, N297G, V domains shown) VH: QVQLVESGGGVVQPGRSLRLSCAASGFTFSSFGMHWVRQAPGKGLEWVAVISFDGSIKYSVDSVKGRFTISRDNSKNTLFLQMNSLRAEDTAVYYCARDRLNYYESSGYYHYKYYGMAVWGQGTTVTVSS VL: QSVLTQPPSVSAAPGQKVTISCSGSYSNIGRKSVSWYQQLPGTAPKLLIYDNNKRPSGIPDRFSGSKSGTSATLGITGLQTGDEADYYCGTWDSRLSAVVFGGGTKLTVLG	0.15

Attention now turns to another entry.
Input anti-CGRP receptor variant antibody 04, bivalent monoclonal antibody (antibody, human IgG1, lambda, N297G, V domains shown) VH: QVQLVESGGGVVQPGRSLRLSCAASGFTFSSFGMHWVRQAPGKGLEWVAVISFDGSIKYSVDSVKGRFTISRDNSKNTLFLQMNSLRAEDTAVYYCARDRLNYYRSFGYYGYHYYGMAVWGQGTTVTVSS VL: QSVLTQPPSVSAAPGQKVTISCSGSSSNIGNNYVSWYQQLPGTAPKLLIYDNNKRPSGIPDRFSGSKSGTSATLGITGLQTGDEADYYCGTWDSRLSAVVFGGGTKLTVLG . Output Run 2 IC50 (nM), cell-based cAMP assay, SK-N-MC cells, 3 nM human α-CGRP: 0.21
